Target: Steroidogenic factor 1 (Homo sapiens) (UniProt Q13285)
Sequence (Q13285 whole entry, looked up, the tested form may be a part): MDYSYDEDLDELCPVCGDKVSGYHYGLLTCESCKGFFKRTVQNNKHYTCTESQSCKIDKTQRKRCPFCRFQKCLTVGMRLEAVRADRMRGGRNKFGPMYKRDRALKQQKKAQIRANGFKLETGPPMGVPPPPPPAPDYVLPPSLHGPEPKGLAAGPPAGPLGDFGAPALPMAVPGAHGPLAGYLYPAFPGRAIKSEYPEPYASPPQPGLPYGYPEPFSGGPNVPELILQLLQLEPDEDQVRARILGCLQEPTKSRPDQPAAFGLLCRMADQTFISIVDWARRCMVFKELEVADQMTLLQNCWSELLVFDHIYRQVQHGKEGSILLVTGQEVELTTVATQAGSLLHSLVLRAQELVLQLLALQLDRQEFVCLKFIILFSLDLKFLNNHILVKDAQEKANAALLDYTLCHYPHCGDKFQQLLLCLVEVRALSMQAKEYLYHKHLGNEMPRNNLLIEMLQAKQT
Assay: SF-1 ligand-binding domain transactivation enhancers – cell-based, CHO-K1, Gal4-SF-1 LBD, luciferase luminescence, primary screen (AID 522)
Settings: CHO-K1 Gal4-SF-1 LBD luciferase reporter; at 10 µM; % increase over DMSO SF-1-specific signal
Among all 65,000 compounds or so, about 1,200 (1.8%) were called active.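 Rule for the calls: active = activation above the mean activation of all tested compounds plus 3 SD (cut at about 50% in these data); inactive = the rest.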 This excerpt belongs to a sample that is enriched for actives.
Classes to choose from: active, inactive

MOLECULE	CLASS NAME
COc1ccc(NC(=O)c2c(C)oc3c2CCCC3)cc1	inactive

Input: What was the test verdict on O=C(CN1CCN(C(=O)c2ccco2)CC1)Nc1ccc(Cl)c(C(F)(F)F)c1 ?
Output: inactive

Input: What was the test verdict on COc1ccc(NS(=O)(=O)c2ccc(NC(=O)C(C)(C(F)(F)F)C(F)(F)F)cc2)nn1 ?
Output: inactive

Input: What was the test verdict on CCOC(=O)c1nnn(CC(=O)Nc2cccc(F)c2)c1C(=O)OCC ?
Output: inactive

====

Target: Steroidogenic factor 1 (Homo sapiens) (UniProt Q13285)
Assay: SF-1 ligand-binding domain transactivation enhancers – cell-based, CHO-K1, Gal4-SF-1 LBD, luciferase luminescence, primary screen (AID 522)
Conditions: CHO-K1 Gal4-SF-1 LBD luciferase reporter; at 10 µM; % increase over DMSO SF-1-specific signal
Out of some 65,000 compounds screened, about 1,200 (1.8%) were called active.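 How the source made its calls: active means activation above the mean activation of all tested compounds plus 3 SD (cut at about 50% in these data); inactive means the rest.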 Many of the other results were omitted from the sample, so actives are more common in it than they were.
Classes to choose from: YES = active, NO = inactive

COMPOUND	CLASS NAME
COc1ccc(S(=O)(=O)NC2(C(F)(F)F)N=C3SCCN3C2=O)cc1 (stereo unspecified)	NO
COc1ccc(N(C(=O)c2cccnc2)S(=O)(=O)c2ccc3c(c2)n(C)c(=O)n3C)cc1	NO
Cc1ccc(-n2nc3cc(Cl)c(NC(=O)c4ccco4)cc3n2)cc1	YES

Input: What was the test verdict on CCN(CC(=O)Nc1ccc2c(c1)OCCO2)Cc1cc(=O)oc2cc(C)c(C)cc12 ?
Output: NO

Input: What was the test verdict on COc1ccc(C(=O)Nc2ccc(S(=O)(=O)Nc3onc(C)c3C)cc2)cc1OC ?
Output: NO

Input: What was the test verdict on Cc1ccc(Cn2c(NC(=O)c3ccco3)nc3ccccc32)cc1 ?
Output: NO

Input: What was the test verdict on CCOc1ccccc1NC(=O)Nc1cc(OC)ccc1OC ?
Output: NO

Input: What was the test verdict on COc1ccccc1NC(=O)c1ccc(C)s1 ?
Output: YES

====

Target: Steroidogenic factor 1 (Homo sapiens) (UniProt Q13285)
Assay: SF-1 ligand-binding domain transactivation enhancers – cell-based, CHO-K1, Gal4-SF-1 LBD, luciferase luminescence, primary screen (AID 522)
Conditions: CHO-K1 Gal4-SF-1 LBD luciferase reporter; at 10 µM; active compounds read high; % increase over DMSO SF-1-specific signal
Among all 65,000 compounds or so, about 1,200 (1.8%) were called active. Shown is part of a subset that was picked to be rich in actives.
Listing: activation of selected compounds
Hi! Could you send only the number? It should be in %, unit omitted.

Reference set (6 entries):
COMPOUND	TEST TARGET	UNIT OF MEASURE	activation
COc1ccccc1-c1cc(C(=O)N2CCCCC2)no1	Steroidogenic factor 1 (Homo sapiens) (UniProt Q13285)	%	82.1
COC(=O)c1ccc(NC(=O)C(C)N2C(=O)c3ccccc3C2=O)cc1 (configuration not stated)	Steroidogenic factor 1 (Homo sapiens) (UniProt Q13285)	%	11.6
CCCCOC(=O)NCN1C(=O)C2C3C=CC(C3)C2C1=O (configuration not stated)	Steroidogenic factor 1 (Homo sapiens) (UniProt Q13285)	%	-13.3
Cc1ccc(C(=O)NC2CC(C)(C)NC(C)(C)C2)c(C)c1	Steroidogenic factor 1 (Homo sapiens) (UniProt Q13285)	%	4.3
COC(=O)c1ccc(NCC(=O)c2ccccc2)cc1	Steroidogenic factor 1 (Homo sapiens) (UniProt Q13285)	%	68.7
Cn1nnc(NC(=O)CSc2ncn[nH]2)n1	Steroidogenic factor 1 (Homo sapiens) (UniProt Q13285)	%	4.4

Input: Fill in activation for record CCOc1ccc(Nc2oc(Cc3ccccc3)nc2C#N)cc1
Output: 39.8

Input: Fill in activation for record O=C(CSCc1cccs1)N1CCCC1
Output: 60.5

Input: Fill in activation for record O=C(c1cc(-c2ccccc2O)on1)N1CCCC1
Output: 20.3

Input: Fill in activation for record N#CC1=C(N)C(C#N)(C#N)[C@H](c2ccsc2)[C@H]2COCC=C12
Output: -1.6

Input: Fill in activation for record N#Cc1nc(COc2ccc(-c3ccccc3)cc2)oc1NCc1cccnc1
Output: -9.1

Input: Fill in activation for record COc1ccccc1N1CCN(C(=O)c2cc(-c3ccc(Br)cc3)on2)CC1
Output: 3.2

====

Target: Steroidogenic factor 1 (Homo sapiens)
Assay: SF-1 ligand-binding domain transactivation enhancers – cell-based, CHO-K1, Gal4-SF-1 LBD, luciferase luminescence, primary screen (AID 522)
Details: CHO-K1 Gal4-SF-1 LBD luciferase reporter; at 10 µM; active compounds read high; % increase over DMSO SF-1-specific signal
The campaign covered roughly 65,000 compounds. About 1,200 (1.8%) were called active. What follows is part of a selection rich in actives, with near analogues and random picks from the rest.
Classification field: enter label 1 for activation values not below 20%, label 0 for values below it.

MOLECULE	CLASS NAME
COc1ccccc1Nc1ncnc2c1oc1ccccc12	label 1
O=C(Nc1cccc(-c2nnc(-c3ccccc3)o2)c1)C1CCCO1 (stereo not drawn)	label 1

Input: Is activation for N#C/C=C1\Sc2ccccc2C(=O)N1CC(=O)N1CCN(S(=O)(=O)c2ccccc2)CC1 at or above 20%?
Output: label 1

Input: Is activation for O=C(CCc1ccccc1)Nc1cccc(-c2nnc(-c3ccco3)o2)c1 at or above 20%?
Output: label 1

Input: Is activation for Cc1cc(NC(=O)COc2ccc(Cl)cc2Cl)n(CCC#N)n1 at or above 20%?
Output: label 1

Input: Is activation for CCCC(=O)N=c1sc2cccc(F)c2n1C at or above 20%?
Output: label 0

Input: Is activation for CC1Cn2c(nnc2-c2cccs2)S1 (stereo not drawn) at or above 20%?
Output: label 0

Input: Is activation for CC(=O)OC(C(=O)NC1CCCCC1)c1ccccc1 (stereo not drawn) at or above 20%?
Output: label 0

Input: Is activation for N#C/C(=C1\CCCN1)c1nc(-c2ccccc2)cs1 at or above 20%?
Output: label 1

Input: Is activation for COc1ccccc1Nc1ncc(C(C)=O)c(C)n1 at or above 20%?
Output: label 1

Input: Is activation for COc1ccc(CCNC(=O)CSc2nc(C)nc3c2oc2ccccc23)cc1OC at or above 20%?
Output: label 1

Input: Is activation for COc1ccc(-n2nnc3c(=O)n(CC(=O)OCc4ccccc4)cnc32)cc1 at or above 20%?
Output: label 0

Input: Is activation for O=C(Nc1ccccc1C(F)(F)F)c1cc(-c2ccc(O)cc2)on1 at or above 20%?
Output: label 1

Input: Is activation for O=C(CSc1nnc(-c2ccco2)n1CC1CCCO1)c1ccccc1 (stereo not drawn) at or above 20%?
Output: label 0

====

Molecular target: Steroidogenic factor 1 (Homo sapiens)
Test: SF-1 ligand-binding domain transactivation enhancers – cell-based, CHO-K1, Gal4-SF-1 LBD, luciferase luminescence, primary screen (AID 522)
Conditions: CHO-K1 Gal4-SF-1 LBD luciferase reporter; at 10 µM; active compounds read high; % increase over DMSO SF-1-specific signal
Out of some 65,000 compounds screened, about 1,200 (1.8%) were called active. The sample holds actives, similar compounds and a random draw of the others, so the mix is not that of the screen.
Classification field: enter fulfilled for activation values not below 50%, not fulfilled for values below it.

Answered examples (5):
MOLECULE	TEST TARGET	CLASS NAME
COc1ccc(C2C(C(=O)Nc3ccccc3OC)=C(C)Nc3nnnn32)c(OC)c1 (stereo unspecified)	Steroidogenic factor 1 (Homo sapiens)	not fulfilled
O=C(O)[C@@H]1CCCN1c1ncnc2sc3c(c12)CCC3	Steroidogenic factor 1 (Homo sapiens)	not fulfilled
Cn1c(=NC(=O)c2ccco2)sc2cccc(F)c21	Steroidogenic factor 1 (Homo sapiens)	fulfilled
Cc1cc(N2C(=O)C(=O)/C(=C(/O)c3ccccc3)C2c2cccc(Br)c2)no1 (stereo unspecified)	Steroidogenic factor 1 (Homo sapiens)	not fulfilled
O=S(=O)(Nc1ccc2nc(-c3ccco3)[nH]c2c1)c1ccccc1	Steroidogenic factor 1 (Homo sapiens)	fulfilled

Now for another entry.
Input: Is activation for Cc1ccc(S(=O)(=O)Nc2ccc3ncccc3c2)cc1 at or above 50%?
Output: not fulfilled

====

Listing: activation of selected compounds
Target: Steroidogenic factor 1 (Homo sapiens) (UniProt Q13285)
Assay: SF-1 ligand-binding domain transactivation enhancers – cell-based, CHO-K1, Gal4-SF-1 LBD, luciferase luminescence, primary screen (AID 522)
Details: CHO-K1 Gal4-SF-1 LBD luciferase reporter; at 10 µM; active compounds read high; % increase over DMSO SF-1-specific signal
Out of some 65,000 compounds screened, about 1,200 (1.8%) were called active. This is one part of a sample in which actives are shown more often than they occur.

INPUT SMILES	activation
COc1cc(OC)c(C(=O)Nc2ccc(N(C)C)cc2)cc1OC	51.4% (active)
NC(=O)COc1ccc2c3c(c(=O)oc2c1)CCCCC3	-7.8% (inactive)

Field: next compound
Input: Fill in activation for record Cc1nnc(SCCCn2c(N3CCCCC3)nc3c2c(=O)[nH]c(=O)n3C)s1
Output: -12.6% (inactive)
